Test: TEAD-YAP interaction inhibition, primary screen, TEAD-YAP interaction inhibitor project, luminescence, HEK-TIYL cells (AID 1259422);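 further: 0% = median of test compound wells and 100% = reference inhibitor wells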
Conditions: TEAD-Gal4/YAP UAS-luciferase luminescence, at 9.12 µM
The campaign covered roughly 640,000 compounds. About 9,300 (1.5%) were called active. No stated cut-off is given here; in the data, active means inhibition above about 32%; inactive means the rest. The sample as a whole holds a higher share of actives than the screen did.
// classify into true (1) = active, false (0) = inactive

Which outcome did this test record for the compound CN1CCN(C(=O)c2ccc(-c3ccc(C(=O)NCCOc4ccccc4)s3)cc2)CC1 ?
false (0)

Lab log entry: COc1cc(/C=C2/SC(N)=NC2=O)cc(OC)c1OC — outcome as called in the assay?
false (0)

Dear colleague, could you share the recorded outcome for COc1cccc(C(=O)NC(c2cccc([N+](=O)[O-])c2)c2cc(Cl)c3cccnc3c2O)c1 (configuration not stated) when you have a moment?
false (0)

Given COc1ccc(C2CC(C(F)(F)F)n3ncc(C(=O)N4CCN(c5cccc(Cl)c5)CC4)c3N2)cc1OC (configuration not stated) , state the outcome it received in this test.
false (0)

Can you look up the reported call for CCOC(=O)C1=C(C)NC2=C(C(=O)CC(C)(C)C2)C1c1cccs1 (configuration not stated) for me?
false (0)

What did the test return for Cc1ccnc(NC(=O)Cc2ccc(Cl)cc2)n1 ?
false (0)

Hi, sorry to bother you, what did the test record for CCOc1ccc(C(C)NC(=O)Cc2ccccc2)cc1 (configuration not stated) ?
false (0)

Kindly provide the recorded test outcome for the following compound: CC1=C(C#N)C(c2ccc(Cl)cc2Cl)C2=C(CC(c3ccccc3)CC2=O)N1 (configuration not stated)
false (0)

Status in this test for C/C=C/c1ccc(Oc2ccc([N+](=O)[O-])c3cnccc23)c(OC)c1 ?
false (0)

Per the assay record, what outcome was assigned to CCOC(=O)C(=O)C(C#N)c1ccc(OC(C)C)cc1 (configuration not stated) ?
false (0)

// param item: COc1cccc(-c2nc3ccccc3c(=O)n2NC(=O)c2cccc(C)c2)c1 ; yields the recorded call
false (0)

How did this test come out for CN(C)CCNc1ccnc2c(-c3ccsc3)cnn12 ?
false (0)

Could you kindly confirm the outcome this assay logged for O=c1c2cc(Cl)ccc2[nH]c(=S)n1Cc1cccnc1 ?
false (0)

# lookup: test call for Cc1ccccc1Nc1ncnc2nc[nH]c12
false (0)

For COc1cccc(NC(=O)CSc2nc(O)c(C)c(=O)n2-c2ccc(F)cc2)c1 , what call appears in the results of this test?
false (0)

For this compound, state the assay outcome: Fc1ccc(C2=Nc3ccc(F)cc3C(C3CC3)=NN2)cc1
false (0)

Dear colleague, could you share the recorded outcome for COc1cc(C(=O)Nc2ccc(C(C)=O)cc2)c2ccccc2n1 when you have a moment?
true (1)

Identify the outcome logged in this assay for the compound shown: CC(=O)NC(NC(C)=O)c1cccnc1
false (0)

Look up the recorded call for Cc1ccc(C(NC(=O)Cc2ccccc2)c2ccc3cccnc3c2O)cc1 (configuration not stated) in this test.
true (1)

Lab log entry: COc1cccc(-c2nc3ccccc3c(=O)n2NC(=O)c2ccccc2C)c1 — outcome as called in the assay?
false (0)

Fill in: this test's call for O=C(N/N=C\c1ccc([N+](=O)[O-])c(O)c1)c1ccc2c(c1)OCO2 is ___
true (1)

How was O=C(CNc1cccc(Br)c1)Nc1ccccc1C(=O)Nc1ccccc1 classified in this test?
false (0)

Hello, I am checking results. What call was entered for Cc1cccc(N2CCN(C(=O)Cn3ncc4c(=O)oc5ccccc5c43)CC2)c1C ?
true (1)

Query: recorded result category for O=C(N/N=C/c1ccc2c(c1)OCO2)c1cc(O)c(O)c(O)c1 in this test
false (0)

// return assay outcome for NS(=O)(=O)c1cccc(N=C2C(=O)Nc3ccc([N+](=O)[O-])cc32)c1
false (0)

Hello, I am checking results. What call was entered for CC(Oc1ccccc1)c1nc(-c2ccccn2)no1 (configuration not stated) ?
false (0)

Please state the recorded outcome for this compound: CC1=C(C(=O)NCc2cccs2)C2(CCCCC2)OC1=O
false (0)

Fill in: this test's call for CNC(=O)c1cc(F)ccc1Nc1cc(Nc2ccc(NC(C)=O)cn2)ncc1C(F)(F)F is ___
true (1)

For this compound, state the assay outcome: CCCCOc1ccccc1C1C(C(=O)OCCOCC)=C(C)NC2=C1C(=O)CC(C)(C)C2 (configuration not stated)
false (0)

How was CNC(=O)c1cc(F)ccc1Nc1cc(Nc2ccc3c(c2)CCC(=O)N3)ncc1C(F)(F)F classified in this test?
true (1)

Kindly provide the recorded test outcome for the following compound: COc1cc2nc(NCc3ccc4c(c3)OCO4)nc(N)c2cc1OC
false (0)

Assay result, entry COC(=O)c1ccc(/C=C2/SC(N)=NC2=O)cc1 — outcome?
false (0)

Call for entry COC(=O)C1=C(C)NC2=C(C(=O)CC(c3ccccc3)C2)C1c1ccc(C)cc1 (configuration not stated) :
false (0)

Status in this test for COc1ccc(-c2cc(C(=O)Nc3ccccc3)c3ccccc3n2)cc1 ?
false (0)

// param item: CC(=O)NC(c1cccs1)c1cc(Cl)c2cccnc2c1O (configuration not stated) ; yields the recorded call
true (1)

Dear colleague, could you share the recorded outcome for COc1cccc2c(=O)n(CC(=O)NCc3ccccc3)ccc12 when you have a moment?
true (1)

Returns: the outcome recorded for CC(=O)N1CCN(c2nc(Nc3ccccc3C(=O)c3ccccc3)nc(OC(C(F)(F)F)C(F)(F)F)n2)CC1 in this assay.
false (0)
